# procedure_text: qHTS assay to identify small molecule agonists of the constitutive androstane receptor (CAR) signaling pathway - cell viability counter screen (AID 1224836); note: nearly all actives have a fitted effect of over 45% in size
# assay_setup: HepG2-CYP2B6-hCAR viability, CellTiter-Fluor, 23 h, PK11195 added to every well; series mostly up to 92.4 µM
# From the text: U.S. Tox21 Program National Center for Advancing Translational Sciences [NCATS] NIH Chemical Genomics Center [NCGC] U.S. Environmental Protection Agency [EPA] National Institutes of Environmental Health Sciences [NIEHS] National Toxicology Program [NTP] U.S. Food and Drug Administration [FDA] […] Tox21 Assay Protocol Summary: A double-stable (hCAR and CYP2B6-2.2kb) transfected cell line, derived from human hepatoma (HepG2) cells, was utilized for the duration of the quantitative high-throughput screens. […]
Results filed as inconclusive are left out. Activity calls are given as the source filed them. Calls come from the whole dose curve; as a rule, active = well fitted cell-killing curve with a large enough effect in the repeat runs; inconclusive = weak or mixed curves, or effect the other way; inactive = flat fitted curve, though single readings scatter.
Answer with one of the outcomes given here: active, inactive

Look over these answered cases.
{"molecule": "Oc1cccc(Cl)c1", "qualitative_label": "inactive"}
{"molecule": "CCCCCl", "qualitative_label": "inactive"}
{"molecule": "CCOP(=S)(OCC)Oc1ccc(S(C)=O)cc1 (stereo not drawn)", "qualitative_label": "inactive"}
{"molecule": "O=C(Cl)OCCOCCOC(=O)Cl", "qualitative_label": "inactive"}
{"molecule": "CC(Cc1ccccc1)NCc1ccccc1Cl (stereo not drawn)", "qualitative_label": "inactive"}
{"molecule": "O=C(O)C(F)(F)C(F)(F)C(F)(F)C(F)(F)C(F)(F)C(F)(F)C(F)(F)C(F)(F)F", "qualitative_label": "inactive"}
{"molecule": "C[C@@H]1C[C@@H]([C@H](O)CC2CC(=O)NC(=O)C2)C(=O)[C@@H](C)C1", "qualitative_label": "active"}
{"molecule": "Nc1cccc2ccccc12", "qualitative_label": "inactive"}
{"molecule": "C1CS1", "qualitative_label": "inactive"}
{"molecule": "FC(Cl)(Cl)C(F)(Cl)Cl", "qualitative_label": "inactive"}

Would you kindly look at the next entry?
*Q* // param item: CC(Oc1cc(Cl)c(Cl)cc1Cl)C(=O)O (stereo not drawn) ; yields the recorded call
*A* inactive
